# METHOD_DESCRIPTION: Aqueous solubility of the compound at pH 7.4
# Type: physicochemical
# SETTINGS: buffer, read-out: solubility
MEASURE: solubility

Task: Fill in: solubility of Cc1c2c(n3c1CCCNC[C@H](C)Nc1cc-3ccc1C(N)=O)CC(C)(C)CC2=O is ___
Output: > 100 µg/mL

Task: Fill in: solubility of Cc1c2c(n3c1CCN(C(=O)[C@H](C)N)CC[C@H](C)Nc1cc-3ccc1C(N)=O)CC(C)(C)CC2=O is ___
Output: > 100 µg/mL

Task: Fill in: solubility of Cc1c2c(n3c1CCN(C(=O)[C@H]1CCCN1)C[C@@H](C)[C@H](C)Nc1cc-3ccc1C(N)=O)CC(C)(C)CC2=O is ___
Output: > 100 µg/mL
